System: SB.mhdgc-1
Assay: viability at highest tested concentration (MAXR) relative to DMSO; higher = less cytotoxic
Conditions: SB.mhdgc-1 (hereditary c.1380delA CDH1 gastric cancer)
Where a name gives a salt, the structure may show the parent alone.
Reported viability values for the following compounds.
Hi! Could you send only the number? It should be in %, unit omitted.

Some solved cases for reference:
{"COMPOUND": "CC(CCc1ccc(O)cc1)NCCc1ccc(O)c(O)c1 (configuration not stated) [Dobutamine hydrochloride] (top concentration 46.0829 µM)", "viability / %": 49.9}
{"COMPOUND": "C[C@H]1CN(C[C@@H](C)N1)C2=C(F)C3=C(C(=C2F)N)C(=O)\\C(=C/N3C4CC4)C(O)=O [Sparfloxacin] (top concentration 23.0415 µM)", "viability / %": 119}

Task: viability for CN[S+](=O)([O-])CCc1ccc2[nH]cc(C3CCN(C)CC3)c2c1 [Naratriptan hydrochloride] (top concentration 46.0829 µM) ?
Result: 16.1

Task: viability for Cc1ccc(-c2ncn(-c3ccc(Nc4nccc(-c5cccc(N6CCOCC6)c5)n4)cc3)n2)cn1 [SR-3306] (top concentration 46.0829 µM) ?
Result: 23.7

Task: viability for O=C(O[C@H]1C[C@H]2CC[C@@H](C1)[N+]21CCCC1)C(O)(c1ccccc1)c1ccccc1.[Cl-] [Trospium chloride] (top concentration 46.0829 µM) ?
Result: 87.3

Task: viability for COc1ccc(C2(C#N)CCC(C(=O)O)CC2)cc1OC1CCCC1 (configuration not stated) [Cilomilast] (top concentration 46.0829 µM) ?
Result: 73.8

Task: viability for OC1CCC(Nc2ncc3nc(Nc4c(F)cc(F)cc4F)n([C@@H]4CCOC4)c3n2)CC1 (some centres not stated) (top concentration 46.0829 µM) ?
Result: 92.7

Task: viability for O=C(c1ccc(F)cc1)C1CCN(CCn2c(=O)[nH]c3ccccc3c2=O)CC1 [Ketanserin] (top concentration 46.0829 µM) ?
Result: 109

Task: viability for COc1cccc([C@@H](C)NCCCc2ccccc2Cl)c1 [NPS R568] (top concentration 46.0829 µM) ?
Result: 74.4

Task: viability for CC(C)CNc1ccnc(NCc2csc(-c3ccccc3)n2)n1 [KHS101] (top concentration 46.0829 µM) ?
Result: 10.6

Task: viability for O=C(Oc1ccc([N+](=O)[O-])cc1)N1CCN(Cc2cccc(Oc3ccccc3)c2)CC1 [JZL-195] (top concentration 46.0829 µM) ?
Result: 31.1

Task: viability for CNC(=O)c1ccc(N2C(=S)N(c3ccc(C#N)c(C(F)(F)F)c3)C(=O)C23CCC3)cc1F [RD-162] (top concentration 46.0829 µM) ?
Result: 3.68
